Target: PRMT5 (Homo sapiens, UniProt O14744)
Construct: purchased Viva (custom protein)
Sequence (O14744 whole entry): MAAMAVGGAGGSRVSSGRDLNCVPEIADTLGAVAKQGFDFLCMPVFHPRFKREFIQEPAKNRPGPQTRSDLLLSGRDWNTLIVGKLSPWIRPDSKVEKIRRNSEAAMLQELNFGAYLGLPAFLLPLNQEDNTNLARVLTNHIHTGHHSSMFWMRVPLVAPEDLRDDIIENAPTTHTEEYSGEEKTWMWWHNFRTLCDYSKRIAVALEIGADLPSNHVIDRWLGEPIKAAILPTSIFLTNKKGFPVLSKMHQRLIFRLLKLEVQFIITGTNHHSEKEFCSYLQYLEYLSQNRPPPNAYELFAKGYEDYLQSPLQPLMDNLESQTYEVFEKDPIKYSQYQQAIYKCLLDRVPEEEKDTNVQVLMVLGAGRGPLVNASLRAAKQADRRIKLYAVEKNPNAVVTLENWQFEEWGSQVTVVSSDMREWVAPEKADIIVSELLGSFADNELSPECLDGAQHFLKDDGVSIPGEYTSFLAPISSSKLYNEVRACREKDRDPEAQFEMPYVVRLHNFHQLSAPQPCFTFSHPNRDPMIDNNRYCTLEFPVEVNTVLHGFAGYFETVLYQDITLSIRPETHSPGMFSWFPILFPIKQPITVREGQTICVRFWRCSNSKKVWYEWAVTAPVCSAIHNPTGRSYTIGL
Sequence (Q9BQA1 whole entry partner): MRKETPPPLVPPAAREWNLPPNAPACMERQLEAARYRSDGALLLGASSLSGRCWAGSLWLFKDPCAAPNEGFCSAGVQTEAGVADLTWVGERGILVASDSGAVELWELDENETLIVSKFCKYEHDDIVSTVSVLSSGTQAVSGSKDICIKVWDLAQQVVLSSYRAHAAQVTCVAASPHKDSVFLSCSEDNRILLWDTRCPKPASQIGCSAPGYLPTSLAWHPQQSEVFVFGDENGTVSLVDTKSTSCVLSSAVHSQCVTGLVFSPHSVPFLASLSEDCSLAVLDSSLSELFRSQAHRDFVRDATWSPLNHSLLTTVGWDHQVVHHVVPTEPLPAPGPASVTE
Experiment: PRMT5 biochemical IC50 assay with no cofactor
Details: PRMT5, no cofactor; read-out: No Cofactor/rel IC50
assay_readout: IC50

[[record]]
compound = "C[C@@H]1CC[C@@H](c2ccc3c(c2)CCO3)N(C(=O)C(=O)Nc2cncc(C(N)=O)c2)C1 (racemic) [Compound 282]"
recorded_result = "> 0.5 µM"


Can you give me IC50 for all of these, one by one?
1. CNS(=O)(=O)c1cccc([C@@H]2CC[C@@H](C)CN2C(=O)C(=O)Nc2cncc(C(N)=O)c2)c1 (racemic) [Compound 666]
2. COc1ncc(NC(=O)C(=O)N2C[C@@H](C)CC[C@@H]2c2ccc3c(c2)CC(=O)N3)cc1C(N)=O (single isomer, unassigned) [Compound 454]
3. C[C@H]1CC[C@H](c2ccccn2)N(C(=O)C(=O)Nc2cncc(C(N)=O)c2)C1 (single isomer, unassigned) [Compound 590]
4. CNc1cccc([C@@H]2CC[C@@H](C)CN2C(=O)C(=O)Nc2cnc(N)c(C)c2)c1 (single isomer, unassigned) [Compound 449]
5. CCc1cc(NC(=O)C(=O)N2C[C@@H](C)CC[C@@H]2c2ccc(N3CCN(C(C)C)CC3)cc2)cnc1N (single isomer, unassigned) [Compound 1208]

-- reply
0.05 to 0.5 µM
< 0.05 µM
0.05 to 0.5 µM
0.05 to 0.5 µM
< 0.05 µM

====

So I've got a bunch of compounds here, and I need their pIC50 values.
Biological target: PRMT5 (Homo sapiens, UniProt O14744)
Construct: purchased Viva (custom protein)
Experiment: PRMT5 biochemical IC50 assay with SAM as cofactor
Conditions: PRMT5, SAM as cofactor; read-out: SAM IC50
pIC50: −log10 of the molar value.

A selection of reference data follows.
[[record]]
compound = "CC(C)C1CCCCN1C(=O)C(=O)Nc1cncc(C(N)=O)c1 (stereo not drawn) [Compound 100]"
assay_readout = "pIC50"
recorded_result = "6.30 to 7.30"

[[record]]
compound = "CO[C@@H]1C[C@@H](c2ccc3scnc3c2)N(C(=O)C(=O)Nc2cnc(N)c(C3CC3)c2)C[C@@H]1C (single isomer, unassigned) [Compound 1241]"
assay_readout = "pIC50"
recorded_result = "< 6.30"


Could you now consider this next compound?
Briefly, pIC50 measured for Cc1cc(NC(=O)C(=O)N2C[C@@H](C)CC[C@@H]2c2ccc(NCC(F)(F)F)cc2)cnc1N (single isomer, unassigned) [Compound 528] : < 6.30

====

So I've got a bunch of molecules here, and I need their pIC50 values.
Target: PRMT5 (Homo sapiens)
Construct: purchased Viva (custom protein)
Test: PRMT5 biochemical IC50 assay with no cofactor
Details: PRMT5, no cofactor; read-out: No Cofactor/ rel IC50
pIC50: −log10 of the molar value.

A selection of reference data follows.
[[record]]
molecule = "CNC(=O)c1ccc([C@H]2CC[C@H](C)CN2C(=O)C(=O)Nc2cncc(C)c2)cc1 (racemic)"
assay_readout = "pIC50"
recorded_result = "< 6.30"

[[record]]
molecule = "CCc1cc(NC(=O)C(=O)N2C[C@@H](C)CC[C@@H]2c2ccc3nn([C@@H]4CCN(C)C4)cc3c2)cnc1N (racemic)"
assay_readout = "pIC50"
recorded_result = "6.30 to 7.30"

[[record]]
molecule = "NC(=O)c1cncc(NC(=O)C(=O)N2CC3CCC(C3)C2c2ccccc2)c1 (racemic)"
assay_readout = "pIC50"
recorded_result = "6.30 to 7.30"

[[record]]
molecule = "Cc1cc(NC(=O)C(=O)N2CCCCC2c2cccc3scnc23)cnc1N (centres unmarked)"
assay_readout = "pIC50"
recorded_result = "< 6.30"

[[record]]
molecule = "Cc1cc(NC(=O)C(=O)N2C[C@@H](C)CC[C@@H]2c2ccc3sc(C4CCN(CC(F)F)CC4)nc3c2)cnc1N"
assay_readout = "pIC50"
recorded_result = "> 7.30"

[[record]]
molecule = "Cc1cc(NC(=O)C(=O)N2CCCC[C@H]2c2cccnc2)cnc1N (single isomer, unassigned)"
assay_readout = "pIC50"
recorded_result = "6.30 to 7.30"

[[record]]
molecule = "CCc1cc(NC(=O)C(=O)N2C[C@@H](C)CC[C@@H]2c2ccc3sc(C4CCN(CC)CC4)nc3c2)cnc1N"
assay_readout = "pIC50"
recorded_result = "> 7.30"

[[record]]
molecule = "C[C@H]1CC[C@H](c2ccc3sc(CN(C)C)nc3c2)N(C(=O)C(=O)Nc2cnc(N)c(C3CC3)c2)C1"
assay_readout = "pIC50"
recorded_result = "> 7.30"


Can you give me pIC50 for all of these, one by one?
1. CCc1cc(NC(=O)C(=O)N2C[C@@H](C)CC[C@@H]2c2ccc3sc([C@H]4CN(C)CCO4)nc3c2)cnc1N
2. Cc1cc(NC(=O)C(=O)N2C[C@@H](C)CC[C@@H]2c2ccc3sc(C4CC(C)(C)N(C)C(C)(C)C4)nc3c2)cnc1C

-- reply
1. > 7.30
2. > 7.30

====

Molecular target: PRMT5 (Homo sapiens, UniProt O14744)
Construct: purchased Viva (custom protein)
Experiment: PRMT5 biochemical IC50 assay with MTA as cofactor
Conditions: PRMT5, MTA as cofactor; read-out: MTA IC50
assay_readout: IC50

A selection of reference data follows.
[[record]]
compound = "Cc1cc(NC(=O)C(=O)N2C[C@@H](C)CC[C@@H]2c2ccc(F)c(Cl)c2)cnc1N (single isomer, unassigned)"
recorded_result = "> 500 nM"

[[record]]
compound = "[2H][C@]1(c2ccc(F)cc2)CC[C@H](C)CN1C(=O)C(=O)Nc1cncc(C(N)=O)c1 (racemic)"
recorded_result = "50 to 500 nM"

[[record]]
compound = "C[C@H]1CC[C@H](c2cc(F)c(F)c(Cl)c2)N(C(=O)C(=O)Nc2cncc(C(N)=O)c2)C1 (single isomer, unassigned)"
recorded_result = "> 500 nM"


Can you give me IC50 for all of these, one by one?
1. Cc1ccc([C@@H]2CC[C@@H](C)CN2C(=O)C(=O)Nc2cnc(N)c(C)c2)cc1O (racemic)
2. Cn1nccc1C1CCCCN1C(=O)C(=O)Nc1cncc(C(N)=O)c1 (single isomer, unassigned) [Compound 46]

-- reply
1: 50 to 500 nM; 2: < 50 nM

Can you give me IC50 for all of these, one by one?
1. Cc1cc(NC(=O)C(=O)N2C[C@@H](C)CC[C@@H]2c2ccc3c(c2)CNC3=O)cnc1N (single isomer, unassigned)
2. Cc1cc(NC(=O)C(=O)N2C[C@H](C)CC[C@H]2c2ccc3c(=O)[nH]ccc3c2)cnc1N (single isomer, unassigned)
3. C[C@H]1CC[C@@H](c2cccnc2)N(C(=O)C(=O)Nc2cncc(C(N)=O)c2)C1 (single isomer, unassigned)
4. COc1ncc(NC(=O)C(=O)N2C[C@H](C)CC[C@H]2c2ccc3c(c2)CC(=O)N3)cc1C(N)=O (single isomer, unassigned)

-- reply
1. > 500 nM
2. 50 to 500 nM
3. 50 to 500 nM
4. > 500 nM

Can you give me IC50 for all of these, one by one?
1. CC(=O)Nc1ccc([C@H]2CC[C@H](C)CN2C(=O)C(=O)Nc2cnc(N)c(C)c2)cc1 (single isomer, unassigned)
2. COc1ncc(NC(=O)C(=O)N2CCCCC2C2CCCC2)cc1C(N)=O (single isomer, unassigned) [Compound 289]
3. COc1ncc(NC(=O)C(=O)N2C[C@@H](C)CC[C@@H]2c2ccc(NS(C)(=O)=O)cc2)cc1C(N)=O (single isomer, unassigned)
4. C[C@@H]1CC[C@@H](C2CCCC2)N(C(=O)C(=O)Nc2cncc(C(N)=O)c2)C1 (racemic)
5. Cc1cc(NC(=O)C(=O)N2C[C@@H](C)CC[C@@H]2[C@H]2CC[C@@H](C(C)(C)C)CC2)cnc1N (single isomer, unassigned)

-- reply
["> 500 nM", "> 500 nM", "> 500 nM", "< 50 nM", "> 500 nM"]

====

So I've got a bunch of compounds here, and I need their IC50 values.
Target: PRMT5 (Homo sapiens, UniProt O14744)
Construct: purchased Viva (custom protein)
Assay: PRMT5 biochemical IC50 assay with no cofactor
Conditions: PRMT5, no cofactor; read-out: No Cofactor/rel IC50

A selection of reference data follows.
[[record]]
compound = "CCc1cc(NC(=O)C(=O)N2C[C@@H](C)CC[C@@H]2c2ccc(NS(C)(=O)=O)cc2)cnc1N (single isomer, unassigned)"
recorded_result = "< 50 nM"

[[record]]
compound = "Cc1cc(NC(=O)C(=O)N2C[C@H](C)CC[C@H]2c2ccc(-c3cn[nH]c3)cc2)cnc1N (racemic) [Compound 525]"
recorded_result = "50 to 500 nM"


Briefly, IC50 measured for C[C@@H]1CC[C@@H]([C@H]2CCC[C@H](O)C2)N(C(=O)C(=O)Nc2cncc(C(N)=O)c2)C1 (single isomer, unassigned) : > 500 nM
